- System: A549
- Protocol description: Cytotoxicity against human A549 cells assessed as reduction in cell viability after 48 hrs by MTT assay
- Type: functional, cell-based
- Test settings: A549, 48 h
Please respond with reported IC50 for every item in the list.

Some molecules with known IC50 results, for comparison:
{"columns": ["Smiles repr", "IC50"],
 "data": [
  ["COC(=O)CCC[C@@H]1[C@H]2CCCN3CCC[C@H](CN1Cc1cn(Cc4ccc(Cl)cc4)c4ccccc14)[C@@H]23", "5.2 µM"],
  ["COC(=O)CCC[C@@H]1[C@H]2CCCN3CCC[C@H](CN1Cc1c[nH]c4ccc(OC)cc14)[C@@H]23", "> 50 µM"],
  ["COC(=O)CCC[C@@H]1[C@H]2CCCN3CCC[C@H](CN1Cc1c[nH]c4ccc(Cl)cc14)[C@@H]23", "> 50 µM"],
  ["COC(=O)CCC[C@@H]1[C@H]2CCCN3CCC[C@H](CN1Cc1cn(CC4CC4)c4ccccc14)[C@@H]23", "30.3 µM"],
  ["COC(=O)CCC[C@@H]1[C@H]2CCCN3CCC[C@H](CN1Cc1c[nH]c4ccccc14)[C@@H]23", "27.8 µM"],
  ["COC(=O)CCC[C@@H]1[C@H]2CCCN3CCC[C@H](CN1Cc1cn(C)c4ccccc14)[C@@H]23", "42.8 µM"],
  ["COC(=O)CCC[C@@H]1[C@H]2CCCN3CCC[C@H](CN1Cc1cn(Cc4ccc(C(F)(F)F)cc4)c4ccc(F)cc14)[C@@H]23", "12.8 µM"],
  ["COC(=O)CCC[C@@H]1[C@H]2CCCN3CCC[C@H](CN1Cc1cn(Cc4ccc(Cl)cc4)c4ccc(F)cc14)[C@@H]23", "10.6 µM"],
  ["COC(=O)CCC[C@@H]1[C@H]2CCCN3CCC[C@H](CN1Cc1cn(Cc4ccc5ccccc5c4)c4ccccc14)[C@@H]23", "24 µM"],
  ["OCCCC[C@@H]1[C@H]2CCCN3CCC[C@H](CN1Cc1cn(Cc4ccccc4)c4ccccc14)[C@@H]23", "33.7 µM"]
]}

Hi, could you look up IC50 for each item in my list?
1. COC(=O)CCC[C@@H]1[C@H]2CCCN3CCC[C@H](CN1Cc1c[nH]c4ccc(C#N)cc14)[C@@H]23
2. COC(=O)CCC[C@@H]1[C@H]2CCCN3CCC[C@H](CN1Cc1cn(Cc4ccc(C(F)(F)F)cc4)c4ccccc14)[C@@H]23
3. COC(=O)CCC[C@@H]1[C@H]2CCCN3CCC[C@H](CN1Cc1cn(Cc4c(Cl)cccc4Cl)c4ccc(F)cc14)[C@@H]23

1: > 50 µM; 2: 7.4 µM; 3: 39.8 µM

Cited source: ChEMBL document CHEMBL4152337
